assay: HCV replicon assay (luciferase reporter, ET cell line); type: cell-based; conditions: Hepatitis C virus, HCV replicon luciferase activity in ET cells
MEASURED_METRIC: inhibition at 10 µM (%)
Give your result in % as a bare value.

Some solved cases for reference:
> print(dat)
                                   compound  unit.text  readout.value
1  COC(=O)C(NC(=O)c1nc2c(C(F)(F)F)cc(-c3ccco3)cn2c1Cl)c1cccs1 (stereo not shown)          %           49.1
2  O=C(NCc1cccs1)c1nc2c(C(F)(F)F)cc(-c3ccccc3)cn2c1C(F)(F)F          %           82.3
3  O=C(c1nc2c(C(F)(F)F)cc(-c3cn[nH]c3)cn2c1Br)N1CCC(c2ccccc2)C1 (stereo not shown)          %           94.3
4  O=S(=O)(Cc1ccccc1)Nc1nc2c(C(F)(F)F)cc(-c3ccco3)cn2c1Cl          %           12.6
5  O=C(c1nc2c(C(F)(F)F)cc(-c3ccco3)cn2c1Cl)N1CCc2ccccc21          %           20.2

The compound listed as O=C(c1nc2c(C(F)(F)F)cc(-c3ccco3)cn2c1Cl)N1CCN(c2ccccc2)CC1 has a reported inhibition at 10 µM of 54.6

The compound listed as CN(C)CCOc1ccccc1CNC(=O)c1nc2c(C(F)(F)F)cc(-c3ccco3)cn2c1Cl has a reported inhibition at 10 µM of 49

---

assay: HCV replicon assay (luciferase reporter, ET cell line); format: cell-based; conditions: Hepatitis C virus, HCV replicon luciferase activity in ET cells
Entries and their inhibition at 10 µM
Give your result in % as a bare value.

Some solved cases for reference:
> print(dat)
                                   compound  readout.value
1  Cn1cc(C2=CCN(C(=O)c3nc4c(C(F)(F)F)cc(-c5ccoc5)cn4c3Cl)CC2)cn1 [Compound 578]           97.2
2  O=C(c1nc2c(C(F)(F)F)cc(-c3ccoc3)cn2c1Cl)N1CC=C(c2ccccc2)CC1 [Compound 594]           88.5
3  O=C(c1nc2c(C(F)(F)F)cc(-c3ccoc3)cn2c1Cl)N1CCC(c2ccccc2F)C1 (centres unmarked) [Compound 333]           98.9
4  CC(C)(C)OC(=O)NC1CN(C(=O)c2nc3c(C(F)(F)F)cc(-c4ccoc4)cn3c2Cl)C1 [Compound 489]             33

The compound listed as O=C(NCc1ccco1)c1cc2cc(-c3ccccc3)cc(I)n2n1 [Compound 124] has a reported inhibition at 10 µM of 54.3

---

Assay: HCV replicon assay (luciferase reporter, ET cell line)
Type: cell-based
Details: Hepatitis C virus, HCV replicon luciferase activity in ET cells
Description: A cell line, ET (Huh-lucubineo-ET) is used for screening of compounds for inhibiting HCV RNA dependent RNA polymerase. […] Luciferase activity is measured 48-72 hours later by adding a lysis buffer and the substrate (Catalog number Glo-lysis buffer E2661 and Bright-Glo luciferase system E2620 Promega, Madison, Wis.). […] Under the same condition, cytotoxicity of the compounds are determined using cell proliferation reagent, WST-1 (Roche, Germany). […]
MEASURED_METRIC: inhibition at 10 µM (%)
Give your result in % as a bare value.

> print(dat)
                                   compound  unit.text  readout.value
1  O=C(c1nc2c(C(F)(F)F)cc(-c3ccoc3)cn2c1Cl)N1CC=C(c2ccncc2F)CC1 [Compound 572]          %           98.2
2  CC(C)(C)OC(=O)n1cccc1-c1cc(C(F)(F)F)c2nc(C(=O)NCc3cccs3)c(Cl)n2c1 [Compound 281]          %           69.3
3  O=C(NCc1cccs1)c1nc2c(C(F)(F)F)cc(-c3cccc(F)c3)cn2c1C#Cc1cccnc1 [Compound 305]          %           59.5
4  O=C(NCc1cccs1)c1cc2cc(-c3ccoc3)cc(Cl)c2[nH]1 [Compound 348]          %            0.1
5  O=C(c1nc2c(C(F)(F)F)cc(-c3cn[nH]c3)cn2c1Br)N1CC=C(c2ccoc2)C1 [Compound 436]          %             98

The compound listed as O=C(c1cn2cc(-c3ccoc3)cc(C(F)(F)F)c2n1)N1CCC(c2ccccc2F)C1 (stereo not shown) [Compound 337] has a reported inhibition at 10 µM of 97.7

The compound listed as O=C(c1nc2c(C(F)(F)F)cc(-c3ccoc3)cn2c1Cl)N1CC=C(c2cccs2)C1 [Compound 422] has a reported inhibition at 10 µM of 99.8

The compound listed as O=C(c1nc2c(C(F)(F)F)cc(-c3ccoc3)cn2c1Cl)N1CC=C(c2nccs2)CC1 [Compound 559] has a reported inhibition at 10 µM of 99.1

The compound listed as O=C(c1nc2c(C(F)(F)F)cc(-c3cn[nH]c3)cn2c1Cl)N1CCC(c2cccc(F)c2)C1 (stereo not shown) [Compound 258] has a reported inhibition at 10 µM of 91

The compound listed as CS(=O)(=O)N[C@H]1CN(C(=O)c2nc3c(C(F)(F)F)cc(-c4ccoc4)cn3c2Cl)C[C@@H]1c1ccccc1 (stereo in doubt) [Compound 458] has a reported inhibition at 10 µM of 64.6
